The compounds listed here are annotated with their Plant response rating, Pigweed.
Test system: pigweed
protocol details: Test A pre-/postemergence herbicide test
Assay type: in vivo, Amaranthus retroflexus
cond: preemergence; 500 g ai/ha; 0 to 100 scale, 0 is no effect and 100 is complete control
measurement kind: Plant response rating, Pigweed

- compound: "O=C1NCC(c2ccc(Cl)o2)C1C(=O)Nc1ccccc1F (stereo not shown)"
  target or test system: "pigweed"
  measurement kind: "Plant response rating, Pigweed"
  reported measurement: 40
- compound: "O=C1NCC(c2cccc(C(F)F)c2)C1C(=O)Nc1cccc(F)c1F (racemic)"
  target or test system: "pigweed"
  measurement kind: "Plant response rating, Pigweed"
  reported measurement: 70
- compound: "Cc1ccccc1NC(=O)C1C(=O)NCC1c1ccc(OC(F)F)cc1 (stereo not shown)"
  target or test system: "pigweed"
  measurement kind: "Plant response rating, Pigweed"
  reported measurement: 20
- compound: "O=C1NCC(c2cccc(S(F)(F)(F)(F)F)c2)C1C(=O)Nc1ccccc1F (racemic)"
  target or test system: "pigweed"
  measurement kind: "Plant response rating, Pigweed"
  reported measurement: 0
- compound: "O=C1NCC(c2ccc(OC(F)(F)F)cc2)C1C(=O)Nc1ccccc1F (racemic)"
  target or test system: "pigweed"
  measurement kind: "Plant response rating, Pigweed"
  reported measurement: 0
- compound: "O=C1NCC(c2ccc(F)cc2)C1C(=O)Nc1ccccc1F (stereo not shown)"
  target or test system: "pigweed"
  measurement kind: "Plant response rating, Pigweed"
  reported measurement: 0
- compound: "O=C1NCC(c2ccc(C(F)(F)F)cc2F)C1C(=O)Nc1ccccc1C(F)(F)F (racemic)"
  target or test system: "pigweed"
  measurement kind: "Plant response rating, Pigweed"
  reported measurement: 0
- compound: "O=C1NCC(c2ccc(OC(F)(F)F)cc2)C1C(=O)Nc1ccccc1C(F)(F)F (racemic)"
  target or test system: "pigweed"
  measurement kind: "Plant response rating, Pigweed"
  reported measurement: 0
- compound: "O=C1NCC(c2ccc(Cl)s2)C1C(=O)Nc1ccccc1F (stereo not shown)"
  target or test system: "pigweed"
  measurement kind: "Plant response rating, Pigweed"
  reported measurement: 0
- compound: "O=C1NCC(c2ccc(Cl)c(Cl)c2)C1C(=O)Nc1ccc(F)c(F)c1F (stereo not shown)"
  target or test system: "pigweed"
  measurement kind: "Plant response rating, Pigweed"
  reported measurement: 30
- compound: "O=C1NCC(c2cccc(C(F)F)c2)C1C(=O)Nc1ccccc1F (racemic)"
  target or test system: "pigweed"
  measurement kind: "Plant response rating, Pigweed"
  reported measurement: 40
- compound: "CSc1cccc(C2CNC(=O)C2C(=O)Nc2ccccc2F)c1 (stereo not shown)"
  target or test system: "pigweed"
  measurement kind: "Plant response rating, Pigweed"
  reported measurement: 0
- compound: "O=C1NCC(c2ccc(Cl)cc2)C1C(=O)Nc1cccc(F)c1F (stereo not shown)"
  target or test system: "pigweed"
  measurement kind: "Plant response rating, Pigweed"
  reported measurement: 70
- compound: "Cc1cccc(NC(=O)C2C(=O)NCC2c2cccc(C(F)(F)F)c2)c1F (racemic)"
  target or test system: "pigweed"
  measurement kind: "Plant response rating, Pigweed"
  reported measurement: 0
- compound: "O=C1NCC(c2ccc(C(F)(F)F)cc2)C1C(=O)Nc1ccccc1F (stereo not shown)"
  target or test system: "pigweed"
  measurement kind: "Plant response rating, Pigweed"
  reported measurement: 70
- compound: "O=C1NCC(c2cccc3ccccc23)C1C(=O)Nc1ccccc1F (stereo not shown)"
  target or test system: "pigweed"
  measurement kind: "Plant response rating, Pigweed"
  reported measurement: 0
- compound: "COc1ccc(NC(=O)C2C(=O)NCC2c2cccc(C(F)(F)F)c2)cc1F (racemic)"
  target or test system: "pigweed"
  measurement kind: "Plant response rating, Pigweed"
  reported measurement: 0
- compound: "Cc1ccc(NC(=O)C2C(=O)NCC2c2cccc(C(F)(F)F)c2)cc1C(F)(F)F (racemic)"
  target or test system: "pigweed"
  measurement kind: "Plant response rating, Pigweed"
  reported measurement: 0
- compound: "O=C1NCC(c2cc(F)cc(F)c2)C1C(=O)Nc1ccc(F)cc1F (racemic)"
  target or test system: "pigweed"
  measurement kind: "Plant response rating, Pigweed"
  reported measurement: 0
- compound: "CN1CC(c2ccc(F)cc2)C(C(=O)Nc2ccccc2F)C1=O (stereo not shown)"
  target or test system: "pigweed"
  measurement kind: "Plant response rating, Pigweed"
  reported measurement: 20
- compound: "COc1ccc(C2CNC(=O)C2C(=O)Nc2ccccc2F)cc1C(F)(F)F (racemic)"
  target or test system: "pigweed"
  measurement kind: "Plant response rating, Pigweed"
  reported measurement: 20
- compound: "O=C1NC[C@@H](c2cccc(C(F)(F)F)c2)[C@@H]1C(=O)Nc1cccc(F)c1F"
  target or test system: "pigweed"
  measurement kind: "Plant response rating, Pigweed"
  reported measurement: 20
